All values here come from patent US20230357099A1.

- Tested on: ABIL (ammonia-binding liquid inoculum), nitrifying microbial enrichment containing both AOA and AOB
- PROTOCOL_SUMMARY: Nitrification inhibition assay on ABIL (ammonium consumption)
- Assay type: cell-based
- DETAILS: 24 h, 10 µM compound; 24 h; 0% = as strong as 100 µM PTIO, 100% = no inhibition; read-out: ABIL - relative nitrification (%) at 10 µM
// reported activity at 10 µM per item
Numbers only; they are read as %.

{"COMPOUND": "COCCONC(=O)c1cc(C2CC2)nc2c1c(C)nn2C(C)(C)C [Example 6]", "activity at 10 µM / %": 16}

What the record says about COCCNC(=O)c1cc(-c2ccc(C)cc2)nc2c1cnn2C(C)C [Example 1] : activity at 10 µM is -9

get_value(item= Cc1nn(C(C)(C)C)c2nc(C3CC3)cc(C(=O)NC(C)C)c12 [Example 12] , readout=activity at 10 µM) returns 30

* * *

- Tested on: ABIL (ammonia-binding liquid inoculum), nitrifying microbial enrichment containing both AOA and AOB
- PROTOCOL_SUMMARY: Nitrification inhibition assay on ABIL (ammonium consumption)
- Assay type: cell-based
- DETAILS: 10 µM compound; structural variants outside formula (I); read-out: Relative nitrification (%) by ABIL treated with 10 µM compound
READOUT_LABEL: activity at 10 µM (%)
Write the number in % without appending the unit.

{"COMPOUND": "Cc1ccc2[nH]nc(C(=O)N3CC[S+]([O-])C(C)(C)C3)c2c1 (stereo not drawn) [Example 109]", "NUMERIC_VALUE": 97}

Continue with the compound presented below.
# compound CC(C)n1ncc2cc(NC(=O)C3CC3(Cl)Cl)cnc21 (stereo not drawn) [Example 19] ; its activity at 10 µM = 90

* * *

- System: ABIL (ammonia-binding liquid inoculum), nitrifying microbial enrichment containing both AOA and AOB
- PROTOCOL_SUMMARY: Nitrification inhibition assay on ABIL (ammonium consumption)
- Format: cell-based
- DETAILS: 10 µM compound; structural variants outside formula (I); read-out: Relative nitrification (%) by ABIL treated with 10 µM compound
// reported activity at 10 µM for each item listed
The answer is to be given in %; state only the numeric part.

// below: answered compounds
{"COMPOUND": "CCN(CCC#N)Cn1nc(Cl)c2ccccc21", "UNITS_LABEL": "%", "activity at 10 µM": 100}
{"COMPOUND": "COCCn1ncc2ccc(NS(=O)(=O)c3ccc4c(c3)CCC4)cc21", "UNITS_LABEL": "%", "activity at 10 µM": 100}

With those in mind, consider the next compound.
Please fill in: activity at 10 µM reported for CN(C(=O)Nc1ccc2c(cnn2C(F)F)c1)C1CCSC1 (stereo not shown) = 100

* * *

- System: ABIL (ammonia-binding liquid inoculum), nitrifying microbial enrichment containing both AOA and AOB
- PROTOCOL_SUMMARY: Nitrification inhibition assay on ABIL (ammonium consumption)
- Assay type: cell-based
- DETAILS: 10 µM compound; structural variants outside formula (I); read-out: Relative nitrification (%) by ABIL treated with 10 µM compound
READOUT_LABEL: activity at 10 µM (%)
Kindly answer with a numeric value in %, unit omitted.

Study these solved cases before continuing.
{"COMPOUND": "O=S(=O)(Nc1ccc2cn[nH]c2c1)c1ccc(S(=O)(=O)N2CCCC2)cc1 [Example 118]", "activity at 10 µM, %": 99}
{"COMPOUND": "COC(C)(C)c1noc(Cc2n[nH]c3ccccc23)n1 [Example 125]", "activity at 10 µM, %": 100}
{"COMPOUND": "CC(C)n1ncc2cc(C(=O)Nc3ccc(F)cc3F)cnc21 [Example 33]", "activity at 10 µM, %": 94}
{"COMPOUND": "COCCN1CCN(Cc2cccc3cn[nH]c23)CC1=O [Example 164]", "activity at 10 µM, %": 100}
{"COMPOUND": "c1ccc(N2CCOCC2)c(CNc2ccc3[nH]ncc3c2)c1 [Example 105]", "activity at 10 µM, %": 94}
{"COMPOUND": "CC(C)n1ncc2cc(NC(=O)CN(C)S(=O)(=O)c3cccs3)cnc21 [Example 88]", "activity at 10 µM, %": 100}

Field activity at 10 µM (entry CC(NC(=O)c1cnc2c(cnn2C(C)C)c1)C1CCCO1 (stereo not shown) [Example 52] ) reads 100

Form: compound = O=C(NCCCSc1ccccc1)c1n[nH]c2ccccc12 [Example 136] ; activity at 10 µM = 100

Form field activity at 10 µM, entry CC1(C)CN(C(=O)c2n[nH]c3ccccc23)CC[S+]1[O-] (stereo not shown) [Example 157] : 100

Input COC(=O)c1cc(CNC(=O)c2n[nH]c3ccccc23)ccc1OC [Example 100] . Output activity at 10 µM: 90

Sample CC(=O)c1ccc(OCC(=O)Nc2cnc3c(cnn3C(C)C)c2)cc1 [Example 87] ; activity at 10 µM observed: 100

Recorded result, Cc1nc2c(cnn2C(C)C)cc1C(=O)N1CCCN(C)c2nc3ccccc3nc21 [Example 91] , activity at 10 µM: 100

Recorded activity at 10 µM (compound COC1(C(=O)Nc2ccc(-n3ncc4ccccc43)cc2)CCOC1 (stereo not shown) [Example 134] ): 100

Given item CC(C)n1ncc2cc(NC(=O)C3=CN4CCS(=O)(=O)N=C4C=C3)cnc21 [Example 53] , the value recorded as its activity at 10 µM is 100

The compound O=S(=O)(CCC1CC1)Nc1n[nH]c2cccc(F)c12 [Example 102] showed activity at 10 µM equal to 90

Measured activity at 10 µM, c1cc(CNCCc2nc(C3CC3)cs2)c2[nH]ncc2c1 [Example 130] : 100

activity at 10 µM recorded for this compound, CC(C)n1ncc2cc(C(=O)Nc3ccnn3Cc3ccc(Cl)cc3Cl)cnc21 [Example 84] , is 100

activity at 10 µM reading for COCCN(C(=O)c1cnc2c(cnn2C(C)C)c1)C1CC1 [Example 79] : 100

// recorded activity at 10 µM for Cc1nc2c(cc1C(=O)NC(C)C1CCCO1)c(C)nn2C (stereo not shown) [Example 48] : 100

* * *

- System: ABIL (ammonia-binding liquid inoculum), nitrifying microbial enrichment containing both AOA and AOB
- PROTOCOL_SUMMARY: Nitrification inhibition assay on ABIL (ammonium consumption)
- Assay type: cell-based
- DETAILS: 10 µM compound; structural variants outside formula (I); read-out: Relative nitrification (%) by ABIL treated with 10 µM compound
READOUT_LABEL: activity at 10 µM

{"COMPOUND": "CC(C)n1ncc2cc(C(=O)O)cnc21 [Example 61]", "activity at 10 µM": "100%"}

Sure, the documented activity at 10 µM for O=S(=O)(Nc1cccc2cn[nH]c12)N1CCCCC1 [Example 149] is 100%

For reference, reported activity at 10 µM for CC1(C)CN(C(=O)c2n[nH]c3ccccc23)CCS1(=O)=O [Example 117] stands at 99%
